System: hLiMTs
Test method notes: Combined HCI (HCS) and cellular ATP 3D assay in hLiMTs
Condition label: hLiMTs; all endpoints; Cmax max used
Readout label: hLiMTs Cmax max All

Answered cases to consult:
Compound	hLiMTs Cmax max All
N[C@@H]1[C@H]2CN(c3nc4c(cc3F)c(=O)c(C(=O)O)cn4-c3ccc(F)cc3F)C[C@@H]12 [trovafloxacin]	+ve
C#CCN(C)Cc1ccccc1 [pargyline]	-ve
CC(COc1ccccc1)N(CCCl)Cc1ccccc1 (stereo not drawn) [phenoxybenzamine]	-ve
NNC(=O)c1ccncc1 [isoniazid, reference compound]	-ve
O=C(O)Cc1ccccc1Nc1c(Cl)cccc1Cl [diclofenac]	+ve

We now examine a further compound.
Endpoint output: hLiMTs Cmax max All of Cc1c(-c2ccccc2)oc2c(C(=O)OCCN3CCCCC3)cccc2c1=O [flavoxate] . Value? -ve
